# target: HIV-1 protease (Human immunodeficiency virus type 1 group M subtype B)
# experiment_description: biochemical
# run_conditions: 1M NaCl
measured_quantity: pIC50
Keep in mind that pIC50 stands for -log10 of concentration in molar terms.

As a guide, the following entries are already answered.
O=C(CCC[n+]1ccc(-c2ccc(Cl)cc2)cc1)c1ccc(F)cc1 :: 2.92
CC(=O)OC1(c2ccc(Cl)cc2)CCN(CCCC(=O)c2ccc(F)cc2)CC1 :: 3.14

Let us examine a further case.
Sample "O=C(CCCN1CC=C(c2ccc(Cl)cc2)CC1)c1ccc(F)cc1" — what was its pIC50?
3.12

----------
# target: HIV-2 protease (Human immunodeficiency virus type 2 subtype A, UniProt P04584)
# Construct: the coding region of the 99-amino acid protease; made in house; host or cells: Saccharomyces cerevisiae strain AB110, plasmid pHIV2PR115
# Sequence (P04584 514-612 limits assumed): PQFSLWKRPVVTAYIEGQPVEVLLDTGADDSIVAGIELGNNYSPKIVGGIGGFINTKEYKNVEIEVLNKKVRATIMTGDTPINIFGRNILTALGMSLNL
# experiment_description: biochemical
# run_conditions: 1M NaCl
pIC50: −log10 of the molar value.
Threshold check on pIC50: at or above 4 gives 1 (yes), strictly below gives 0 (no).

// known answers, use as guide
OC1(c2ccc(Cl)cc2)CCN(CCCC2(c3ccc(F)cc3)SCCCCS2)CC1 :: 1 (yes)
OC1(c2ccc(Cl)cc2)CCN(CCCNCc2ccccc2)CC1 :: 0 (no)
O=C(CCCN1CCC(O)(c2ccc(Cl)cc2)CC1)c1ccc(-c2ccccc2)cc1 :: 1 (yes)

Quick check, pIC50 >= 4? OC1(c2ccc(Cl)cc2)CCN(CCCC(O)(c2ccccc2)c2ccc(-c3ccccc3)cc2)CC1 (stereo not drawn)
1 (yes)

Quick check, pIC50 >= 4? "O=C(c1ccc(N2CCC(O)(c3ccc(Cl)cc3)CC2)cc1)C1CC1"
0 (no)

Quick check, pIC50 >= 4? O=C(CCC[N+]1([O-])CCC(O)(c2ccc(Cl)cc2)CC1)c1cccc(-c2ccccc2)c1 (stereo not drawn)
1 (yes)

Quick check, pIC50 >= 4? "O=C(CCCN1CC=C(c2ccc(Cl)cc2)CC1)c1ccc(F)cc1"
0 (no)

Quick check, pIC50 >= 4? "COCCN(CCN1CCC(O)(c2ccc(Cl)cc2)CC1)Cc1ccccc1"
0 (no)

Quick check, pIC50 >= 4? "CC(=O)OC1(c2ccc(Cl)cc2)CCN(CCCC(=O)c2ccc(F)cc2)CC1"
0 (no)

----------
# experiment_description: Solubility
Catalogue of solubility values

O=C(c1ccc(N2CCC(O)(c3ccc(Cl)cc3)CC2)cc1)C1(CC#CCO)CC1 :: > 250 µM

Sample OC1(CCCCc2ccccc2)CCC(O)(c2ccc(Cl)cc2)CC1 (stereo not drawn) — what was its solubility?
> 500 µM

Sample OC(CC=CC1(O)CCN(Cc2ccccc2)CC1)c1ccccc1 (stereo not drawn) — what was its solubility?
> 500 µM

Sample C=C(CCCC1(O)CCC(O)(c2ccc(Cl)cc2)CC1)c1ccccc1 (stereo not drawn) — what was its solubility?
> 500 µM

Sample O=C(CCCC1(O)CCC(O)(c2ccc(Cl)cc2)CC1)c1ccc(F)cc1 (stereo not drawn) — what was its solubility?
< 100 µM

Sample OC1(CCCCc2ccccc2)CCC(O)(c2ccccc2)CC1 (stereo not drawn) — what was its solubility?
> 250 µM

Sample "O=C(c1ccc(N2CCC(O)(c3ccc(Cl)cc3)CC2)cc1)C1CC1" — what was its solubility?
> 250 µM

Sample "C=CCCCC1(C(=O)c2ccc(N3CCC(O)(c4ccc(Cl)cc4)CC3)cc2)CC1" — what was its solubility?
< 100 µM

Sample OC1(C#CC2(c3ccccc3)CO2)CCN(Cc2ccccc2)CC1 (stereo not drawn) — what was its solubility?
> 500 µM

Sample "OC1(C2(c3ccc(Cl)cc3)SCCCS2)CCN(CCCC2(c3ccc(F)cc3)SCCS2)CC1" — what was its solubility?
< 50 µM

Sample OC(CCCC1(O)CCN(Cc2ccccc2)CC1)c1ccccc1 (stereo not drawn) — what was its solubility?
> 500 µM

Sample OC(CC#CC1(O)CCN(Cc2ccccc2)CC1)c1ccccc1 (stereo not drawn) — what was its solubility?
> 500 µM
